Values from ChEMBL document CHEMBL5131560

# experiment_description: AUC (0 to infinity) in C57BL6 mouse at 3 mg/kg, po and measured upto 24 hrs by LC-MS/MS analysis
# Format: ADME, organism-based
# Design: dose 3 mg/kg, time < 24 hrs, route po
# conditions: in vivo
Exercise: state measured AUC(0-inf) for each of the compounds provided.
Numbers only, in µM·h.

Some solved cases for reference:
1) COc1cc(F)c([C@@H]2CNC(=O)[C@H]2Nc2nnc(-c3ccc(Cl)cc3)o2)c(F)c1 | 8.4
2) COc1cc(F)c([C@@H]2CNC(=O)[C@H]2Nc2cc(-c3ccc(Cl)cc3)on2)c(F)c1 | 15

Lookup: Note down AUC(0-inf) recorded for COc1cc(F)c([C@@H]2CNC(=O)[C@H]2NC(=O)Nc2ccccc2)c(F)c1
Found: 5.6

----------
Exercise: state measured fraction unbound for each of the compounds provided.
# experiment_description: Protein binding in human assessed as free fraction
# Assay type: ADME
Numbers only.

Some solved cases for reference:
1. COc1cc(F)c([C@@H]2CNC(=O)[C@H]2Nc2cc(-c3ccc(Cl)cc3)on2)c(F)c1 | 0.005
2. COc1cc(F)c([C@@H]2CNC(=O)[C@H]2NC(=O)Nc2ccccc2)c(F)c1 | 0.127

Lookup: Note down fraction unbound recorded for COc1cc(F)c([C@@H]2CNC(=O)[C@H]2Nc2nnc(-c3ccc(Cl)cc3)o2)c(F)c1
Found: 0.015

----------
Exercise: state measured EC50 for each of the compounds provided.
# measured_target: N-formyl peptide receptor 2 (Homo sapiens, UniProt P25090)
# Sequence (P25090 whole entry): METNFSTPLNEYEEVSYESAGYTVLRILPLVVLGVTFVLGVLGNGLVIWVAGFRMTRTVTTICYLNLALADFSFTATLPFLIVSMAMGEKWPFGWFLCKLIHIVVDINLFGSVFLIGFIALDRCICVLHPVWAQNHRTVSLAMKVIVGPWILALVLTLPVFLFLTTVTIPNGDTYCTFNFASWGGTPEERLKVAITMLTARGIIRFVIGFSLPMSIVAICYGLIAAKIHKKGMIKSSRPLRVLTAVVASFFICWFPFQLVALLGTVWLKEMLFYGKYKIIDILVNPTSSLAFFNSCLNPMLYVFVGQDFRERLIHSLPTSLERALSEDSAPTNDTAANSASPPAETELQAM
# experiment_description: Agonist activity at human FPR2 overexpressing CHO cells assessed as reduction in intracellular cAMP level incubated for 30 mins by HTRF assay
One number for each entry, in nM.

Some solved cases for reference:
1) COc1cc(F)c([C@@H]2CNC(=O)[C@H]2Nc2nnc(-c3ccccc3)o2)c(F)c1 | 250
2) COc1cc(F)c([C@@H]2CNC(=O)[C@H]2Nc2nc3ccccc3[nH]2)c(F)c1 | 1300

Lookup: Note down EC50 recorded for COc1cc(F)c([C@@H]2CNC(=O)[C@H]2Nc2cc(-c3ccc(Cl)cc3)no2)c(F)c1
Found: 2200

----------
# measured_target: N-formyl peptide receptor 2 (Homo sapiens)
# experiment_description: Agonist activity at human FPR2 overexpressing CHO cells assessed as reduction in intracellular cAMP level incubated for 30 mins by HTRF assay
pEC50: −log10 of the molar value.
Classify as follows. Reported pEC50 greater than or equal to 7: T. Reported pEC50 below: F.

1. COc1cc(F)c([C@@H]2CNC(=O)[C@H]2Nc2nnc(-c3ccc(Cl)cc3F)o2)c(F)c1 | F
2. COc1cc(F)c([C@@H]2CNC(=O)[C@H]2Nc2nnc(-c3cccc(Cl)c3)o2)c(F)c1 | F
3. COc1cc(F)c([C@@H]2CNC(=O)[C@H]2Nc2nnc(-c3ccc(Cl)cc3)s2)c(F)c1 | T
4. COc1ccc(-c2nnc(N[C@@H]3C(=O)NC[C@H]3c3c(F)cc(OC)cc3F)o2)cc1 | F

We now examine a further compound.
Lookup: API: above_or_equal(metric=pEC50, cutoff=7) for item COc1ccc([C@@H]2CNC(=O)[C@H]2Nc2nnc(-c3ccc(Cl)cc3)o2)c(F)c1
Found: T

----------
# measured_target: N-formyl peptide receptor 2 (Homo sapiens, UniProt P25090)
# experiment_description: Agonist activity at human FPR2 overexpressing CHO cells assessed as reduction in intracellular cAMP level incubated for 30 mins by HTRF assay
measurement_type: log10 EC50 (log10 of the value in nM)
Plainly stated, the numbers are log10 of EC50 given in nM.

1) COc1cc(F)c([C@@H]2CNC(=O)[C@H]2c2nc3ccccc3[nH]2)c(F)c1 | 2.83
2) COc1cc(F)c([C@@H]2CNC(=O)[C@H]2Nc2nc(-c3ccc(Cl)cc3)no2)c(F)c1 | 3.54

For every listed record, write down its log10 EC50.
1. COc1cc(F)c([C@@H]2CNC(=O)[C@H]2Nc2nnc(-c3ccc(Cl)cc3)o2)c(F)c1
2. COc1cc(F)c([C@@H]2CNC(=O)[C@H]2c2nc3cc(Cl)ccc3[nH]2)c(F)c1
3. COc1cc(F)c([C@@H]2CNC(=O)[C@H]2Nc2nnc(-c3ccc(OC(F)(F)F)cc3)o2)c(F)c1

Found:
1. 1.51
2. 2.04
3. 1.72

For every listed record, write down its log10 EC50.
1. COc1cc(F)c([C@@H]2CNC(=O)[C@H]2c2nc3nc(Cl)ccc3[nH]2)c(F)c1
2. COc1cc(F)c([C@@H]2CNC(=O)[C@H]2Nc2ncc(-c3ccc(Cl)cc3)o2)c(F)c1

Found:
1: 3.36; 2: 2.40

----------
# Tested on: Peritoneal macrophage
# experiment_description: Induction of phagocytosis in mouse peritoneal macrophages assessed as increase in FITC signal preincubated with compound for 15 mins followed by zymosan addition and measured after 1 hr by Trypan Blue based FITC analysis
pEC50: −log10 of the molar value.
measurement_type: pEC50

Lookup: Note down pEC50 recorded for COc1cc(F)c([C@@H]2CNC(=O)[C@H]2NC(=O)Nc2ccccc2)c(F)c1 [BMS-986235]
Found: > 9.00

----------
# measured_target: N-formyl peptide receptor 2 (Homo sapiens, UniProt P25090)
# experiment_description: Agonist activity at human FPR2 overexpressing CHO cells assessed as reduction in intracellular cAMP level incubated for 30 mins by HTRF assay
Exercise: state measured pEC50 for each of the molecules provided.
Numbers only, as −log10 of the molar value.

Some solved cases for reference:
1. COc1ccc([C@@H]2CNC(=O)[C@H]2Nc2nnc(-c3ccc(Cl)cc3)o2)cc1 | 6.80
2. COc1cc(F)c([C@@H]2CNC(=O)[C@H]2c2nc3cc(Cl)cnc3[nH]2)c(F)c1 | 7.40

Please examine the following record next.
Lookup: Note down pEC50 recorded for COc1cc(F)c([C@@H]2CNC(=O)[C@H]2Nc2noc(-c3ccc(Cl)cc3)n2)c(F)c1
Found: 5.60
